Where do the numbers come from? From patent US20140056903A1.

- MEASUREMENT TARGET: T1, human GFRα3 expressed with a C-terminal myc-myc-hexahistidine tag (human, UniProt O60609 32-374, biotinylated (sites not given) in ELISA format 2 and in the Octet cross-competition; not in SPR)
- T1 construct: also called hGFRα3-mmh; hGFRα3-mmH
- T1 sequence (O60609 other isoform, or with tags, fused parts or gaps limits assumed): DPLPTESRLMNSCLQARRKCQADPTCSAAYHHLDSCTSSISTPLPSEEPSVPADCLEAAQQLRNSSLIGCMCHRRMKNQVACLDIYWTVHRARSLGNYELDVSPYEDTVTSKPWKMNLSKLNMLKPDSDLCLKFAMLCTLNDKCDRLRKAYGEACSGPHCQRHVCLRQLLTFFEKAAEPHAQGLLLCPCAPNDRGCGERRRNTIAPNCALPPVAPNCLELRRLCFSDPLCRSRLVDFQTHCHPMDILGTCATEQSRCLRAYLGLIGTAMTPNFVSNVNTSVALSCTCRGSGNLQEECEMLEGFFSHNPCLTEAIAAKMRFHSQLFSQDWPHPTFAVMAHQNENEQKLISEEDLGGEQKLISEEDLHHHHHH
- PROCEDURE SUMMARY: SPR, Ab captured, 37C
MEASURE: koff (s⁻¹)
Give the value in s⁻¹ but do not write s⁻¹ after it.

// returns reported koff for input H4H2236N3 (antibody, human IgG4, V domains shown, human IgG4 Fc (H4H)) VH: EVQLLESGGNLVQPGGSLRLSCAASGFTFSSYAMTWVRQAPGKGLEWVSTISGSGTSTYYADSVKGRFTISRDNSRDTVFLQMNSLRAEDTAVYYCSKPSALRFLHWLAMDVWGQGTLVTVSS VL: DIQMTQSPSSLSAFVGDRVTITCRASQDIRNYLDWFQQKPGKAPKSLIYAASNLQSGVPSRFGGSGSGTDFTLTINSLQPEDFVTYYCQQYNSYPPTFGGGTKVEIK
0.000748

// returns reported koff for input H4H2295S (antibody, human IgG4, V domains shown, human IgG4 Fc (H4H)) VH: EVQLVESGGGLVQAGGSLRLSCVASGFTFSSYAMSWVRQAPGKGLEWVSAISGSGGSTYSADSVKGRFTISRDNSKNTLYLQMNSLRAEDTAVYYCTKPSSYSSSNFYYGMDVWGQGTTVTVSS VL: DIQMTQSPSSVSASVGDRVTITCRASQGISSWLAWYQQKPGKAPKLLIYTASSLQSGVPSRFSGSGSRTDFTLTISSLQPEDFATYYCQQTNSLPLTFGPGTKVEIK
0.00119

// returns reported koff for input H1M2236N (antibody, V domains shown, chimeric, human variable and mouse constant domains (H1M)) VH: EVQLLESGGNLVQPGGSLRLSCAASGFTFSSYAMTWVRQAPGKGLEWVSTISGSGTSTYYADSVKGRFTISRDNSRDTVFLQMNSLRAEDTAVYYCSKPSALRFLHWLCMDVWGQGTLVTVSS VL: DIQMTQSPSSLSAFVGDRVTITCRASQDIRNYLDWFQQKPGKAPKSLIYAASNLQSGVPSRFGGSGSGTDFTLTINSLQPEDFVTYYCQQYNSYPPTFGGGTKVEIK
0.00055
